# TARGET ENTITY: His-AKT (Full Length) (Homo sapiens (Human), UniProt P31749)
# Sequence (P31749 whole entry): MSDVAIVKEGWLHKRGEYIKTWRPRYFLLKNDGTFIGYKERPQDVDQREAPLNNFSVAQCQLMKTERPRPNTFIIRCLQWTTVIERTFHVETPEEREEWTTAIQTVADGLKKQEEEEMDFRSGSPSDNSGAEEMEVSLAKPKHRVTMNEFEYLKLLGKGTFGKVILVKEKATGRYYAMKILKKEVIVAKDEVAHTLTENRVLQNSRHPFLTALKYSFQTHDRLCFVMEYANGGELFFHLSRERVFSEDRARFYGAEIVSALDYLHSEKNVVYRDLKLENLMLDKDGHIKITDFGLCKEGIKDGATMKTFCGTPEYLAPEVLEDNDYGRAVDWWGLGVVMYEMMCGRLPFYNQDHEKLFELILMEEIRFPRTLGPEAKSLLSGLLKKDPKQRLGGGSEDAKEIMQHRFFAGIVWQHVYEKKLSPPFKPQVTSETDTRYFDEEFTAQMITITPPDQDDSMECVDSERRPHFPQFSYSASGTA
# EXPERIMENT DESCRIPTION: AKT enzyme assay
# Assay type: biochemical
# RUN PARAMETERS: read-out: IC50 AKT
# Text: A TTP Mosquito liquid handling instrument is used to place 125n1 of the appropriate concentration of inhibitor in 100% DMSO (for a dose response curve calculation) into each well of a 384-well plate. […] The plate is read on a Caliper LC 3000 in an Off-Chip mobility shift assay format, using the following parameters for a 12-sipper chip: screening pressure −2.3 psi, upstream voltage −500, and downstream voltage −3000. […]
PROPERTY NAME: IC50 (nM)

Recorded IC50, per entry:
>>> print(df.to_string())
                                   compound  measurement
0  CC(C)Oc1c(N)ncnc1N1CCC(c2nc(-c3ccnc(C(F)(F)F)c3)cn2CCN2CCC2)CC1          9.1
1  COc1c(N)ncnc1N1CCC(c2nc(-c3ccc(F)c(C(F)(F)F)c3)cn2C)CC1          440

a. CCc1c(N)ncnc1N1CCC(c2nc(-c3ccc(F)cc3)cn2CCN2CC3(COC3)C2)CC1
b. COc1cc(-c2cn(CCN3CCC3)c(C3CCN(c4ncnc(N)c4C(N)=O)CC3)n2)ccc1F
c. Cc1cc(-c2cn(CCO)c(C3CCN(c4ncnc(N)c4C(N)=O)CC3)n2)ccc1F
d. CCc1c(N)ncnc1N1CCC(c2nc(-c3ccc(F)c(F)c3)cn2CCN2CCC23COC3)CC1
Ask: Sort by IC50, descending. To answer, write out the labels according to the requested order.
Reply: d, a, c, b

A. N#Cc1c(N)ncnc1N1CCC(c2nc(-c3ccc(F)c(C(F)(F)F)c3)cn2C2CNC2)CC1
B. COC(=O)c1ccc(-c2c(N)ncnc2N2CCC(c3nc(-c4ccc(F)c(C(F)(F)F)c4)cn3CCN3CCCC3)CC2)cc1
C. N#Cc1c(N)ncnc1N1CCC(c2nc(-c3ccc(F)c(F)c3)cn2CCN2CCCC2)CC1
D. COCCN(C)CCn1cc(-c2ccc(F)c(C(F)(F)F)c2)nc1C1CCN(c2ncnc(N)c2C#N)CC1
E. Cn1cc(-c2ccc(F)c(C(F)(F)F)c2)nc1C1CCN(c2ncnc(N)c2C=O)CC1
Ask: Exam item: list the entries in increasing order of IC50. Reply format: the labels, ordered as requested.
Reply: C, D, B, E, A
(C: 7.6 nM, D: 26 nM, B: 78 nM, E: 160 nM, A: 240 nM)

1. CC(=O)Nc1c(N)ncnc1N1CCC(c2nc(-c3ccc(F)c(C(F)(F)F)c3)cn2CCN2CCC2)CC1
2. CCc1c(N)ncnc1N1CCC(c2nc(-c3ccc(F)c(C(F)(F)F)c3)cn2CCN2CC(C)C2)CC1
3. CNCCn1cc(-c2ccc(F)c(C)c2)nc1C1CCN(c2ncnc(N)c2C#N)CC1
4. CCc1c(N)ncnc1N1CCC(c2nc(-c3ccc(F)c(C(F)(F)F)c3)cn2CCN2CC(F)C2)CC1
5. NC(=O)c1c(N)ncnc1N1CCC(c2nc(-c3ccc(F)c(Cl)c3)cn2CCN2CCCC2)CC1
Ask: Sort (5 compounds) by IC50: min first. Give your ranking as a list of the labels in the requested order.
Reply: 3, 2, 5, 4, 1
